Test system: SRE.L-firefly luciferase reporter (Rho/MKL1 pathway) in PC-3 prostate cancer cells
Assay Details: SRE.L-luciferase reporter assay
Type: cell-based
Measurement Setup: PC-3 cells transfected with Gα12Q231L, SRE.L and pRL-TK reporters; compound 19 hrs
Description: Seed PC-3 prostate cancer cells (40,000 cells/well) were grown in 96-well plates in 10% FBS containing DMEM medium. […] Luminescence counts were read with a Victor2 (Perkin-Elmer) plate reader. One hour prior to cell lysis for the dual luciferase assay, 10 μl: per well of WST1 reagent (Roche) was added to the 96-well plates. […] Cell viability was measured by WST1 absorbance at 450 nm with a Victor2 (Perkin-Elmer) plate reader. […]
Define the label as 1 when IC50 is strictly less than 2000 nM and as 0 in all remaining cases.

As a guide, the following entries are already answered.
Problem: For the molecule CN(Cc1ccccc1)C1CC(C(=O)Nc2ccc(Cl)cc2)CN(C(=O)c2cccc(-c3ccco3)c2)C1 (single isomer, unassigned) [Example E-060] , is IC50 under 2000 nM?
0

Here's an entry: O=C(NC1CC(C(=O)Nc2ccc(Cl)cc2)CN(C(=O)c2cccc(-c3ccco3)c2)C1)Oc1ccccc1 (centres unmarked) [Example E-056] . Is its IC50 below 2000 nM?
0

Consider the molecule COC1CC(C(=O)Nc2ccc(Cl)cc2)CN(C(=O)c2cccc(-c3ccco3)c2)C1 (single isomer, unassigned) [Example E-045] . Is its IC50 strictly less than 2000 nM?
1

Further cases:
Is it true that IC50 reported for O=C(NC1CC(C(=O)Nc2ccc(Cl)cc2)CN(C(=O)c2cccc(-c3ccco3)c2)C1)c1ccccc1 (single isomer, unassigned) [Example E-055] is less than 2000 nM?
0

# strict comparison: is reported IC50 < 2000 nM? input = O=C(NC1CC(C(=O)Nc2ccc(Cl)cc2)CN(C(=O)c2cccc(-c3ccco3)c2)C1)c1ccccc1 (single isomer, unassigned) [Example E-054]
0

Strictly below 2000 nM in IC50? COC1CC(C(=O)Nc2ccc(Cl)cc2)CN(C(=O)c2cccc(-c3ccco3)c2)C1 (single isomer, unassigned) [Example E-046]
0

Quick check: does CC(c1ccc(-n2cccn2)cc1)N1CCCC(C(=O)Nc2ccc(Cl)cc2)C1 (single isomer, unassigned) [Example E-103] have IC50 under 2000 nM?
0

Criterion: IC50 strictly below 2000 nM. Is it met by CN(Cc1ccccc1)C1CC(C(=O)Nc2ccc(Cl)cc2)CN(C(=O)c2cccc(-c3ccco3)c2)C1 (single isomer, unassigned) [Example E-061] ?
1
